Hey, just so you know, these numbers are from BindingDB's records for doi:10.1038/nchembio.2134.

molecular target: Histone deacetylase 6 [440-798,S531A] (Danio rerio, UniProt F8W4B7, S531A); construct: 440-798; test: HDAC6 fluorescence anisotropy assay; settings: 25 °C
Sequence (F8W4B7 as listed by the source S531A): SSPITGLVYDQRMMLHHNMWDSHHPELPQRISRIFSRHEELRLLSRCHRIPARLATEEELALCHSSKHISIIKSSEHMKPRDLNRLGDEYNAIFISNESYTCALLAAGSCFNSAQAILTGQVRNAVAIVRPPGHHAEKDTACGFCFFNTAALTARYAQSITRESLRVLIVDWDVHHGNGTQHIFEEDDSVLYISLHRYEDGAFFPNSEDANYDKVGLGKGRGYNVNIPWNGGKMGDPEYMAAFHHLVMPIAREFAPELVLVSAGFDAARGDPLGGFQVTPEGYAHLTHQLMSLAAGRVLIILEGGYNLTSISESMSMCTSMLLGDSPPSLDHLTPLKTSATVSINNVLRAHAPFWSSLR
reported.metric: pKd
Keep it numeric: pKd is minus log10 of the concentration in mol/L.

Give its pKd value. Item: O=C(CCCCCCC(=O)Nc1ccc(-c2c3ccc(=O)cc-3oc3cc(O)ccc23)c(C(=O)O)c1)NO [fl-SAHA] 6.77

====

target: Histone deacetylase 6 [84-835,H255V] (Homo sapiens, UniProt Q9UBN7, H255V); construct: 84-835; test: HDAC6 fluorescence anisotropy assay; conditions: 25 °C
Sequence (Q9UBN7 84-835 H255V): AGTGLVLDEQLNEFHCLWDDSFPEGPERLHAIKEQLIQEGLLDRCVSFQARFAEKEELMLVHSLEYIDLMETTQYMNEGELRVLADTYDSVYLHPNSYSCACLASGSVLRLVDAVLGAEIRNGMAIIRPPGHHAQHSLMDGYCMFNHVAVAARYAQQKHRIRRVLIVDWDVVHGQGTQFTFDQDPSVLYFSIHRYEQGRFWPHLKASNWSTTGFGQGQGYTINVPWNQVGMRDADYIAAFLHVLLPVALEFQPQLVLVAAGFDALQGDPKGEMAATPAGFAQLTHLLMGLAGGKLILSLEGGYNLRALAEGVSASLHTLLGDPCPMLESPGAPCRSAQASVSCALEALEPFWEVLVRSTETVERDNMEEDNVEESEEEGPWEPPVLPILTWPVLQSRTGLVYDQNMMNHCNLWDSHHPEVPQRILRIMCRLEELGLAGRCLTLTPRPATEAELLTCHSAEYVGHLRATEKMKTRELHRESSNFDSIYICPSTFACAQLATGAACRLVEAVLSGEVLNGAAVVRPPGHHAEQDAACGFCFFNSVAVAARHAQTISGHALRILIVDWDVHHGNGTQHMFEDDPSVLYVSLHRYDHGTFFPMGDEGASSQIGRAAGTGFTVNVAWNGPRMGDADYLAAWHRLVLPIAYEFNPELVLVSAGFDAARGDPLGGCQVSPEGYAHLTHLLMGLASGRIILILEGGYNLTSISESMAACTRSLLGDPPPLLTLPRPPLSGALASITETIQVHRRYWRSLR
reported.metric: Kd

Give its Kd value. Item: O=C(CCCCCCC(=O)Nc1ccc(-c2c3ccc(=O)cc-3oc3cc(O)ccc23)c(C(=O)O)c1)NO 240 nM

====

molecular target: Histone deacetylase 6 [84-835,H651V] (Homo sapiens, UniProt Q9UBN7, H651V); construct: 84-835; test: HDAC6 fluorescence anisotropy assay; conditions: 25 °C
Sequence (Q9UBN7 84-835 H651V): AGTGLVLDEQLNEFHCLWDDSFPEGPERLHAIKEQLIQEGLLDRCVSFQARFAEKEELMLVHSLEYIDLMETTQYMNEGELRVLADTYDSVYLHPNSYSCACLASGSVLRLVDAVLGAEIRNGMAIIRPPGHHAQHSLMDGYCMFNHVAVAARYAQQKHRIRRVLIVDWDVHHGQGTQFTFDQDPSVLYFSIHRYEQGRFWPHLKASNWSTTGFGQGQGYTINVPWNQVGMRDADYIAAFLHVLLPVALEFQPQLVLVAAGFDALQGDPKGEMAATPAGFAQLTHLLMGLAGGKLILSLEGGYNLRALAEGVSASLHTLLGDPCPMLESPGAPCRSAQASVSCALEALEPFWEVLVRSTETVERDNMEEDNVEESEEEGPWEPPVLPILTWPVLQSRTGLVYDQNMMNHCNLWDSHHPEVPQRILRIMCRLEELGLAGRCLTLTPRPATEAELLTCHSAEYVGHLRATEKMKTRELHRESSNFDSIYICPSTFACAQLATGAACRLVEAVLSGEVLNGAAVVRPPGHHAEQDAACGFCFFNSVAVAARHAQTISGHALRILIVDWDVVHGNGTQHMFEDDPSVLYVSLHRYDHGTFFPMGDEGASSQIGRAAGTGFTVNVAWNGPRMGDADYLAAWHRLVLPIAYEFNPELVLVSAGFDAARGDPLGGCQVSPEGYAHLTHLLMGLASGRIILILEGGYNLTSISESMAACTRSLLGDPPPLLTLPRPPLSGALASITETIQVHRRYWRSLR
reported.metric: Kd (µM)
Unit µM implied. Number only.

Give its Kd value. Item: O=C(CCCCCCC(=O)Nc1ccc(-c2c3ccc(=O)cc-3oc3cc(O)ccc23)c(C(=O)O)c1)NO 30

====

biological target: Histone deacetylase 6 [60-420,H82F,F202Y] (Danio rerio, UniProt F8W4B7, F202Y/H82F); construct: 60-420; assay: HDAC6 fluorescence anisotropy assay; conditions: 25 °C
Sequence (F8W4B7 as listed by the source H82F/F202Y): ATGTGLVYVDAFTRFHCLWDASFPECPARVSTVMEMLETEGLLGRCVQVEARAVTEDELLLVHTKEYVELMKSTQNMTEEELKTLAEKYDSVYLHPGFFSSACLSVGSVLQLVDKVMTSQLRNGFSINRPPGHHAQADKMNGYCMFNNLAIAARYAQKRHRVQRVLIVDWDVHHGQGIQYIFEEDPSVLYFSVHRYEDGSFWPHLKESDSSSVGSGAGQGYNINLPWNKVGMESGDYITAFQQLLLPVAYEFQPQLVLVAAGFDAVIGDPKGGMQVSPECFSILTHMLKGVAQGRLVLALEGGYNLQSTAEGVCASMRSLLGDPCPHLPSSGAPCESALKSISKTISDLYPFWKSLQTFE
reported.metric: Kd (µM)
Unit µM implied. Number only.

Form entry - test system: Histone deacetylase 6 [60-420,H82F,F202Y] (Danio rerio, UniProt F8W4B7, F202Y/H82F); read-out: Kd; molecule: O=C(CCCCCCC(=O)Nc1ccc(-c2c3ccc(=O)cc-3oc3cc(O)ccc23)c(C(=O)O)c1)NO [fl-SAHA] 2.9
